target: BRD4-BD1 (BRD4-1) (Homo sapiens, UniProt O60885); construct: BRD4-BD1 (residues 44-168); 6xHis (cleaved yes); host or cells: E. coli BL21 (DE3) RIL; assay: Differential scanning fluorimetry (DSF) thermal shift; type: binding; settings: DSF; 5 μM protein, 100 μM compound; three independent experiments, average ± SD

{"Molecule": "COC1CCC(n2c(C3CCCC(=O)N3c3ccc4c(c3)OCCO4)nc3cc(-c4c(C)noc4C)ccc32)CC1 (stereo not drawn)", "∆Tm (°C) BRD4-1": 6.9}
{"Molecule": "COC1CCC(n2c(C3CCCC(=O)N3c3cccc(C(C)(C)C)c3)nc3cc(-c4c(C)noc4C)ccc32)CC1 (stereo not drawn)", "∆Tm (°C) BRD4-1": 3.2}
{"Molecule": "COC1CCC(n2c(C3CCCC(=O)N3c3cc(C(F)(F)F)cc(C(F)(F)F)c3)nc3cc(-c4c(C)noc4C)ccc32)CC1 (stereo not drawn)", "∆Tm (°C) BRD4-1": 2.1}

Data provenance: paper PMC11045757
